Recorded values, source patent US8987248B2.

# maps each entry to its IC50
- tested.system: human protease activated receptor 1 (PAR-1) (Homo sapiens (Human))
- Sequence (P25116 22-425): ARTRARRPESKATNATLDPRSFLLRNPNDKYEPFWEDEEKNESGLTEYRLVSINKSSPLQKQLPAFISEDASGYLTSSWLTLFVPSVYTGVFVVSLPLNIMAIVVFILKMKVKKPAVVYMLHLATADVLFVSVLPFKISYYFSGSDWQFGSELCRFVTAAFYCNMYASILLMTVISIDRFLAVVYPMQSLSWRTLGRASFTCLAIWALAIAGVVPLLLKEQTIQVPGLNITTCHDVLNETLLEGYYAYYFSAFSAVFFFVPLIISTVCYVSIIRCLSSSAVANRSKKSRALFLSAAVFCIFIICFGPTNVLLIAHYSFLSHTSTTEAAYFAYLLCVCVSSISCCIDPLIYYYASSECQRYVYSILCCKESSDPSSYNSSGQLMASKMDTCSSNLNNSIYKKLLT
- measurement.notes: Cellular, functional in vitro test (aequorin luminescence, calcium release in recombinant HEK293 PAR-1 test cell)
- experimental.conditions: HEK293-derived PAR-1 test cell line expressing aequorin; PAR-1 agonist added at its EC50, 5 min after test substance
- Source text: 1.a) Cellular, Functional In Vitro Test A recombinant cell line is used to identify […] of the human protease activated receptor 1 (PAR-1) and to quantify the activity of the substances described herein. The cell is originally derived from a human embryonal kidney cell (HEK293; ATCC: American Type Culture Collection, Manassas, Va. 20108, USA). […]
Answer in nM, number only, no unit symbol.

Reference set (2 entries):
[[record]]
compound = "O=C(NC1CC(c2ccc(C(F)(F)F)cc2)CN(C(=O)N2CCOCC2)C1)c1ccccc1 (single isomer, unassigned) [Example 128]"
tested_system = "human protease activated receptor 1 (PAR-1) (Homo sapiens (Human))"
value_unit = "nM"
reported_measurement = 17

[[record]]
compound = "O=C(NC1CC(c2ccc(C(F)(F)F)cc2)CN(C(=O)N2CCC(O)CC2)C1)c1ccccc1 (racemic) [Example 129]"
tested_system = "human protease activated receptor 1 (PAR-1) (Homo sapiens (Human))"
value_unit = "nM"
reported_measurement = 33.6


Continue with the next compound.
Qu. Can you look up IC50 on human protease activated receptor 1 (PAR-1) (Homo sapiens (Human)) for CCc1ccc(C2CC(NC(=O)C(C)(C)C)CN(C(=O)C3CCCC3)C2)cc1 (racemic) [Example 90] ?
Ans. 359
